Every entry's value here was drawn from ChEMBL document CHEMBL1138482.

assay target: Trifunctional purine biosynthetic protein adenosine-3 (Homo sapiens, UniProt P22102)
Sequence (P22102 whole entry): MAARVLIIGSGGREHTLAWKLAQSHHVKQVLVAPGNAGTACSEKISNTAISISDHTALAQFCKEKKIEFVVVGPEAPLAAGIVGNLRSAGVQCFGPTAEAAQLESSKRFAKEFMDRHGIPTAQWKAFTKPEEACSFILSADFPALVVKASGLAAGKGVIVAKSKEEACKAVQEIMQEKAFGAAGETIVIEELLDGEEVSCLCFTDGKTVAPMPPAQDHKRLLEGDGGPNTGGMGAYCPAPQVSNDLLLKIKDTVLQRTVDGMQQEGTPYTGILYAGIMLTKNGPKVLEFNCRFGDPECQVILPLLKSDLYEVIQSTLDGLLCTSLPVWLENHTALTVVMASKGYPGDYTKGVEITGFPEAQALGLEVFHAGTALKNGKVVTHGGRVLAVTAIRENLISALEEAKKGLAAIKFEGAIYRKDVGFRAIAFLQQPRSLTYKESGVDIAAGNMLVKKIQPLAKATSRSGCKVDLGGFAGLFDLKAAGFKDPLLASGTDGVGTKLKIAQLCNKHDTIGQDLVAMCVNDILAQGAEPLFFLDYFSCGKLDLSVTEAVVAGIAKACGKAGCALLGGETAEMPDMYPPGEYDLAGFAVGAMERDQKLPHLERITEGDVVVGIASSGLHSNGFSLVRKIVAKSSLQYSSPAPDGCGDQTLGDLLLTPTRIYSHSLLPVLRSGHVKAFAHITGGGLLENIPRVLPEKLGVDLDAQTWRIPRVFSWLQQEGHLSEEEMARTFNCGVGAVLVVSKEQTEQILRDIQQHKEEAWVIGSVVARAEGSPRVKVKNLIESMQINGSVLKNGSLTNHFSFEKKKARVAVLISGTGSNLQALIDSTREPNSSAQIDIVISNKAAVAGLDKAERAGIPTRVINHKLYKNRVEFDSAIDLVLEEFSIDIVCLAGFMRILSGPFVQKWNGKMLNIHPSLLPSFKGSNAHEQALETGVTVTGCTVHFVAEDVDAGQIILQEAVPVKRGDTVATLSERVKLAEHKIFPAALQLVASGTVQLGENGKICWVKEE
test: Inhibition of GARFTase in human KB cells assessed as inhibition of incorporation of [14C]glycine into [14C]formyl GAR after 30 mins in presence of azaserine
measurement type: IC50 (nM)
Write the answer as a number in nM, unit excluded.

Please review the following examples before continuing.
- Nc1nc2sc(CCc3ccc(C(=O)N[C@@H](CCC(=O)O)C(=O)O)cc3)cc2c(=O)[nH]1: 32.3
- Nc1nc2sc(CCCCCCc3ccc(C(=O)N[C@@H](CCC(=O)O)C(=O)O)cc3)cc2c(=O)[nH]1: 26.6

In the following, a different compound is considered.
Can you look up IC50 on Trifunctional purine biosynthetic protein adenosine-3 (Homo sapiens, UniProt P22102) for `Nc1nc2sc(CCCCCc3ccc(C(=O)N[C@@H](CCC(=O)O)C(=O)O)cc3)cc2c(=O)[nH]1` ? 23.6
